Readings of cGAS 100 nM for the listed sequences
# target_system: cGAS (Homo sapiens)
# Sequence (Q8N884 whole entry): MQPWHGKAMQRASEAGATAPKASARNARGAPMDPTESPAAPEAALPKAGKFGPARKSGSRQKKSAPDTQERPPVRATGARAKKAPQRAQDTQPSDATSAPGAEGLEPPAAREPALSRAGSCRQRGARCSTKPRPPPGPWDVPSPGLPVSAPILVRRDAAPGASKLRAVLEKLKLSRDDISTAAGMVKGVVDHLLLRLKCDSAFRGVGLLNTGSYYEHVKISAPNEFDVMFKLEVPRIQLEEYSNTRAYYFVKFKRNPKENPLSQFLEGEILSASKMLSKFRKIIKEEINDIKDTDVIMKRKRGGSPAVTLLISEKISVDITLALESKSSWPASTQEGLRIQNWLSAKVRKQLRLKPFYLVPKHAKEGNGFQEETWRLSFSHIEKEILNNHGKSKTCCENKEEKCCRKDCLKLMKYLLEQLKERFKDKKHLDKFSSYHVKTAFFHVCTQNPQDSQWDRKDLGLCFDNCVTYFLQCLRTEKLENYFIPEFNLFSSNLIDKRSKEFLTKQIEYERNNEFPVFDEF
# procedure_text: ISD70-driven IP-10 (and IFN-β) production in THP-1 cells, ELISA
# Type: cell-based
# Set-up: endogenous in cells; host or cells: THP-1 (undifferentiated)
# recorded_conditions: MOE-modified ASO at 100 nM; averaged IP-10 levels relative to ISD70 condition
# respond with the number and nothing more

CACCCACTTGGCAGACCATC (antisense; 2'-MOE modified, pattern not given here) [CTNN2B-1576 MOE]; 0.658
GAGGTCTTGGCTTCGTGGAG (antisense; 2'-MOE modified, pattern not given here) [MB21D1-523 MOE]; 0.380
GGTTTTGGCTGGGATCAAGT (antisense; 2'-MOE modified, pattern not given here) [CAMSAP1-4697 MOE]; 0.375
GTGTCTTCATCGGCCCTGCC (antisense; 2'-MOE modified, pattern not given here) [CAMSAP1-2113 MOE]; 0.606
AGATCTGGCAGCCCATCAAC (antisense; 2'-MOE modified, pattern not given here) [CTNN2B-2516 MOE]; 0.677
TCCGGCCTCGGAAGCTCTCT (antisense; 2'-MOE modified, pattern not given here) [MB21D1-168 MOE]; 0.250

Turning now to a further record.
In: Note cGAS 100 nM for the sequence shown: TTGCACACTTCGTACCCAAA (antisense; 2'-MOE modified, pattern not given here) [CAMSAP1-4915 MOE]
Out: 0.392
